Cited source for all entries: ChEMBL document CHEMBL5247578

- System: SK-MEL-5
- assay method text: Antiproliferative activity against human SK-MEL-5 cells assessed as cell growth inhibition at 10 uM incubated for 48 hrs by sulforhodamine B assay relative to control
- Assay type: functional
measure name: inhibition at 10 µM (%)
Write the value in % as a bare number.

Reported inhibition at 10 µM for `c1ccc(Cn2cnc3ccc(-c4nc(-c5ccc6c(c5)ncn6C5CCCCC5)cn5ccnc45)cc32)cc1` : what is it?
-84

Reported inhibition at 10 µM for `Fc1ccccc1-c1cn2ccnc2c(-c2ccc3ncn(C4CCCCC4)c3c2)n1` : what is it?
6.5

Reported inhibition at 10 µM for `c1ccc2c(-c3cn4ccnc4c(-c4ccc5ncn(C6CCCCC6)c5c4)n3)cccc2c1` : what is it?
4.06

----------
- Test system: NCI-H460
- assay method text: Antiproliferative activity against human NCI-H460 cells assessed as cell growth inhibition at 10 uM incubated for 48 hrs by sulforhodamine B assay relative to control
- Assay type: functional
measure name: inhibition at 10 µM (%)
Write the value in % as a bare number.

State its inhibition at 10 µM on NCI-H460: `c1cn2cc(-c3ccc4ncn(C5CCCCC5)c4c3)nc(-c3ccc4ncn(C5CCCCC5)c4c3)c2n1`
53

State its inhibition at 10 µM on NCI-H460: `Fc1ccc(-c2cn3ccnc3c(-c3ccc4ncn(C5CCCCC5)c4c3)n2)cc1`
6.12

State its inhibition at 10 µM on NCI-H460: `c1ccc2c(-c3cn4ccnc4c(-c4ccc5ncn(C6CCCCC6)c5c4)n3)cccc2c1`
3.61

State its inhibition at 10 µM on NCI-H460: `c1csc(-c2cn3ccnc3c(-c3ccc4ncn(C5CCCCC5)c4c3)n2)c1`
1.3

----------
- System: NCI/ADR-RES
- assay method text: Antiproliferative activity against human NCI/ADR-RES cells assessed as cell growth inhibition at 10 uM incubated for 48 hrs by sulforhodamine B assay relative to control
- Assay type: functional
If the reported inhibition at 10 µM equals or exceeds 30%, assign Criterion met. If not, assign Criterion not met.

Reported inhibition at 10 µM at or above 30%? `COc1ccccc1-c1cn2ccnc2c(-c2ccc3ncn(C4CCCCC4)c3c2)n1`
Criterion not met

Reported inhibition at 10 µM at or above 30%? `O=Cc1ccc(-c2cn3ccnc3c(-c3ccc4ncn(C5CCCCC5)c4c3)n2)cc1`
Criterion met

Reported inhibition at 10 µM at or above 30%? `c1ccc(Cn2cnc3ccc(-c4nc(-c5ccc6c(c5)ncn6C5CCCCC5)cn5ccnc45)cc32)cc1`
Criterion met

Reported inhibition at 10 µM at or above 30%? `Clc1ccc(-c2cn3ccnc3c(-c3ccc4ncn(C5CCCCC5)c4c3)n2)cc1`
Criterion not met

Reported inhibition at 10 µM at or above 30%? `O=Cc1ccc(-c2cn3ccnc3c(-c3ccc4ncn(Cc5ccccc5)c4c3)n2)cc1`
Criterion met

Reported inhibition at 10 µM at or above 30%? `c1ccc(Cn2cnc3ccc(-c4nc(-c5cccc6ccccc56)cn5ccnc45)cc32)cc1`
Criterion not met

----------
Provide the recorded inhibition at 10 µM for the entries that follow.
- Tested on: SN12C
- assay method text: Antiproliferative activity against human SN12C cells assessed as cell growth inhibition at 10 uM incubated for 48 hrs by sulforhodamine B assay relative to control
- Format: functional
Write the value in % as a bare number.

Reported inhibition at 10 µM for `Cc1cccc(-c2cn3ccnc3c(-c3ccc4ncn(Cc5ccccc5)c4c3)n2)c1` : what is it?
4.72

Reported inhibition at 10 µM for `c1ccc(-c2cn3ccnc3c(-c3ccc4ncn(C5CCCCC5)c4c3)n2)cc1` : what is it?
28.8

Reported inhibition at 10 µM for `c1cn2cc(-c3ccc4c(c3)ncn4C3CCCCC3)nc(-c3ccc4ncn(C5CCCCC5)c4c3)c2n1` : what is it?
20.5

Reported inhibition at 10 µM for `O=Cc1ccc(-c2cn3ccnc3c(-c3ccc4ncn(Cc5ccccc5)c4c3)n2)cc1` : what is it?
20.7

Reported inhibition at 10 µM for `CC(=O)c1ccc(-c2cn3ccnc3c(-c3ccc4ncn(C5CCCCC5)c4c3)n2)cc1` : what is it?
6.33

Reported inhibition at 10 µM for `c1ccc(Cn2cnc3ccc(-c4nc(-c5cccc6ccccc56)cn5ccnc45)cc32)cc1` : what is it?
5.62

Reported inhibition at 10 µM for `c1ccc(Cn2cnc3ccc(-c4nc(-c5ccc6c(c5)ncn6C5CCCCC5)cn5ccnc45)cc32)cc1` : what is it?
-35.4

Reported inhibition at 10 µM for `Brc1cn2ccnc2c(-c2ccc3ncn(C4CCCCC4)c3c2)n1` : what is it?
6.47

Reported inhibition at 10 µM for `FC(F)(F)c1cccc(-c2cn3ccnc3c(-c3ccc4ncn(C5CCCCC5)c4c3)n2)c1` : what is it?
8.3

Reported inhibition at 10 µM for `CCc1ccc(-c2cn3ccnc3c(-c3ccc4ncn(Cc5ccccc5)c4c3)n2)cc1` : what is it?
22.5

Reported inhibition at 10 µM for `COc1ccc(-c2cn3ccnc3c(-c3ccc4ncn(C5CCCCC5)c4c3)n2)cc1` : what is it?
63.6

Reported inhibition at 10 µM for `O=Cc1ccc(-c2cn3ccnc3c(-c3ccc4ncn(C5CCCCC5)c4c3)n2)cc1` : what is it?
20.7

Reported inhibition at 10 µM for `Clc1ccc(-c2cn3ccnc3c(-c3ccc4ncn(C5CCCCC5)c4c3)n2)cc1` : what is it?
13.5

Reported inhibition at 10 µM for `Brc1ccc(-c2cn3ccnc3c(-c3ccc4ncn(C5CCCCC5)c4c3)n2)cc1` : what is it?
18.4

Reported inhibition at 10 µM for `COc1ccccc1-c1cn2ccnc2c(-c2ccc3ncn(C4CCCCC4)c3c2)n1` : what is it?
7.73

Reported inhibition at 10 µM for `c1csc(-c2cn3ccnc3c(-c3ccc4ncn(C5CCCCC5)c4c3)n2)c1` : what is it?
2.84
